Target: WEE1 (Homo sapiens)
Construct: purchased Thermo Fisher PR7373A
Sequence (P30291 whole entry): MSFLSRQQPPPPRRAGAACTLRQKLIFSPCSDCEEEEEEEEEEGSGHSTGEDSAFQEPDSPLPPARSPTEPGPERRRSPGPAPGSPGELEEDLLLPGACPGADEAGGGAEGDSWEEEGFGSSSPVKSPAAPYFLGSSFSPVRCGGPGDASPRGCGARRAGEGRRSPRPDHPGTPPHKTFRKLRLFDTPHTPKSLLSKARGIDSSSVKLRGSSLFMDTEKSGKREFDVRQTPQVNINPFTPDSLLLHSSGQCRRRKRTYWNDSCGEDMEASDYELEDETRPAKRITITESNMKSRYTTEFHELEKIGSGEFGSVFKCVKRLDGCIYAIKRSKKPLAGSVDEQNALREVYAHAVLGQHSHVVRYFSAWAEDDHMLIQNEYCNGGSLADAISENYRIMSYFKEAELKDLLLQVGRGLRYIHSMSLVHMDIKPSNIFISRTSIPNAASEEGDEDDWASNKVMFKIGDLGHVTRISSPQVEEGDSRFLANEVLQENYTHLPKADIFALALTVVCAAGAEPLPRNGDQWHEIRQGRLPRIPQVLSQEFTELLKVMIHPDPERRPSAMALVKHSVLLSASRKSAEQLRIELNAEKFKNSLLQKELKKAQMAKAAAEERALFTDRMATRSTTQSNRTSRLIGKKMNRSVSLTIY
Experiment: Selectivity versus WEE1 assay (ADP-Glo enzymatic assay)
Type: biochemical
Settings: fold difference in selectivity for PKMYT1 over WEE1; banded
endpointName: PKMYT1 vs. WEE1 selectivity

>  <compound>
CCc1cn(CCF)nc1Nc1ncc(C(=O)Nc2c(C)ccc(O)c2C)s1 [BAA-588]

>  <PKMYT1 vs. WEE1 selectivity>
X (100-<1000 fold)

$$$$
>  <compound>
CCc1ccccc1Nc1ncc(C(=O)Nc2c(C)ccc(O)c2C)s1 [BAA-484]

>  <PKMYT1 vs. WEE1 selectivity>
X (100-<1000 fold)

$$$$
>  <compound>
COCC(C(=O)N1CCCC1)n1cc(C)c(Nc2ncc(C(=O)Nc3c(C)ccc(O)c3C)s2)n1 (stereo not shown) [BAA-577]

>  <PKMYT1 vs. WEE1 selectivity>
X (100-<1000 fold)

$$$$
>  <compound>
Cc1ccc(O)c(C)c1NC(=O)c1cnc(Nc2nccc3ccncc23)s1 [BAA-602]

>  <PKMYT1 vs. WEE1 selectivity>
X (100-<1000 fold)

$$$$
>  <compound>
Cc1ccc(O)c(C)c1NC(=O)c1cnc(Nc2n[nH]c3cc(F)cc(F)c23)s1 [BAA-452]

>  <PKMYT1 vs. WEE1 selectivity>
X (100-<1000 fold)

$$$$
>  <compound>
CCCn1nc(Nc2ncc(C(=O)Nc3c(C)ccc(O)c3C)s2)c2ccccc21 [BAA-460]

>  <PKMYT1 vs. WEE1 selectivity>
X (100-<1000 fold)

$$$$

[Q] Return PKMYT1 vs. WEE1 selectivity for the following compound: Cc1cn(CC(C)O)nc1Nc1ncc(C(=O)Nc2c(C)ccc(O)c2C)s1 (stereo not shown) [BAA-499]
[A] X (100-<1000 fold)

---

Biological target: Human PKMYT1 (Homo sapiens)
Construct: Human PKMYT1 75-362 was cloned as a TEV cleavable 6xHis fusion; 6xHis (TEV cleavable) (cleaved yes); made in house; host or cells: bacterial cells
Sequence (Q99640 75-362): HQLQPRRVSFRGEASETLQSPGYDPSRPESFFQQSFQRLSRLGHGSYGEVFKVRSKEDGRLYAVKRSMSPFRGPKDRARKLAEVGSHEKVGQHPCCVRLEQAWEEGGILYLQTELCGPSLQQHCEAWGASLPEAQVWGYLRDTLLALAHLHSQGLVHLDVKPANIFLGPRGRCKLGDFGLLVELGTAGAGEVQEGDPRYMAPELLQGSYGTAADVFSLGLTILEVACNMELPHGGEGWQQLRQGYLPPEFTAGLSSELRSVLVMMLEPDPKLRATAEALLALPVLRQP
Assay: PKMYT1 biochemical ADP-Glo enzymatic assay
Conditions: PKMYT1 kinase domain 15 nM; ADP-Glo; banded values
Where a name gives a salt, the structure may show the parent alone.
IC50: recorded values

Reference set (8 entries):
>  <compound>
Cc1ccc(O)c(C)c1NC(=O)c1cnc(Nc2cccc3c2CCC3)s1

>  <result>
50 to 1000 nM

$$$$
>  <compound>
Cc1ccc(O)c(C)c1NC(=O)c1cnc(Nc2cccc(N3CCN(C)CC3)n2)s1

>  <result>
< 50 nM

$$$$
>  <compound>
Cc1cn(C(C)C(=O)N2CCN(C)CC2)nc1Nc1ncc(C(=O)Nc2c(C)ccc(O)c2C)s1 (centres unmarked)

>  <result>
< 50 nM

$$$$
>  <compound>
Cc1conc1Nc1ncc(C(=O)Nc2c(C)ccc(O)c2C)s1

>  <result>
< 50 nM

$$$$
>  <compound>
CCN(CC)C(=O)Cn1cc(Cl)c(Nc2ncc(C(=O)Nc3c(C)ccc(O)c3C)s2)n1

>  <result>
< 50 nM

$$$$
>  <compound>
COC1CCN(C(=O)Cn2cc(C)c(Nc3ncc(C(=O)Nc4c(C)ccc(O)c4C)s3)n2)C1 (centres unmarked)

>  <result>
< 50 nM

$$$$
>  <compound>
Cc1ccnc(Nc2ncc(C(=O)Nc3c(C)ccc(O)c3C)s2)n1

>  <result>
< 50 nM

$$$$
>  <compound>
Cc1ccc(O)c(C)c1NC(=O)c1cnc(Nc2cccc3ncsc23)s1

>  <result>
< 50 nM

$$$$

[Q] Return IC50 for the following compound: CCOc1ccccc1Nc1ncc(C(=O)Nc2c(C)ccc(O)c2C)s1 [BAA-539, TFA salt]
[A] 50 to 1000 nM

[Q] Return IC50 for the following compound: `CCOC(=O)c1oc(Nc2ncc(C(=O)Nc3c(C)ccc(O)c3C)s2)nc1C`
[A] 50 to 1000 nM

[Q] Return IC50 for the following compound: `CCn1nc(Nc2ncc(C(=O)Nc3c(C)ccc(O)c3C)s2)c2ccccc21`
[A] < 50 nM

[Q] Return IC50 for the following compound: `COC[C@@H]1CCCN1C(=O)Cn1cc(C)c(Nc2ncc(C(=O)Nc3c(C)ccc(O)c3C)s2)n1`
[A] < 50 nM

[Q] Return IC50 for the following compound: `Cc1ccc(O)c(C)c1NC(=O)c1cnc(Nc2nccc3ncccc23)s1`
[A] 50 to 1000 nM

[Q] Return IC50 for the following compound: `CCc1c[nH]nc1Nc1ncc(C(=O)Nc2c(C)ccc(O)c2C)s1`
[A] < 50 nM
